Below is a list of entries, each paired with its recorded kon value.
Biological target: T1, hu-IL-36α (human IL-36α, N-terminally truncated active form K6-F158) (human, UniProt Q9UHA7 6-158)
T1 construct: Purification tag cleaved off; Biotinylated where captured (SPR, some ELISAs); also called hu-IL-36a
T1 sequence: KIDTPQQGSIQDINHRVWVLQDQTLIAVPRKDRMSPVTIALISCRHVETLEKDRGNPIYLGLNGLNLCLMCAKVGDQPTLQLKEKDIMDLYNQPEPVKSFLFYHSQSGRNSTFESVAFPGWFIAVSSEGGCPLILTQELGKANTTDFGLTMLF
Test: SPR (Biacore 8K), biotinylated hu-IL-36 captured on CAP chip, Fab injected, 37°C
observation-type: kon

[[record]]
binder = "mAb2.11 Fab (Fab, V domains shown, Recombinant Fab with 8xHis tag (Expi293F)) VH: ELQLQESGPGLVKPSETLSLTCTVSGGSISESSYYWGWIRQPPGKGLEWIGSIYYTGETYYAPSLKSRVTISVDTSKNQFSLKLSSVTAADTAVYYCARLRYGVGVPRYFDPWGQGTLVTVSS VL: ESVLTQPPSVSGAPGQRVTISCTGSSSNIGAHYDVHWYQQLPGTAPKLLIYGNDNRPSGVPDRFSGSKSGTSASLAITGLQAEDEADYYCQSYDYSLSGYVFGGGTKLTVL"
observation_type = "kon"
recorded_value = "1.91e+06 M⁻¹ s⁻¹"

[[record]]
binder = "mAb2.8 Fab (Fab, V domains shown, Recombinant Fab with 8xHis tag (Expi293F)) VH: ELQLQESGPGLVKPSETLSLTCTVSGGSISDSSYYWGWIRQPPGKGLEWIGSIYYTGETYYAPSLKSRVTISVDTSKNQFSLKLSSVTAADTAVYYCARLRYGVGVPRYFDPWGQGTLVTVSS VL: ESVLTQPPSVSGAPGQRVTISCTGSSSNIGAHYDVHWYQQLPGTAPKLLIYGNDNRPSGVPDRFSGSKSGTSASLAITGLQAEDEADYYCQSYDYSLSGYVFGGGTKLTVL"
observation_type = "kon"
recorded_value = "1.83e+06 M⁻¹ s⁻¹"

[[record]]
binder = "mAb2.9 Fab (Fab, V domains shown, Recombinant Fab with 8xHis tag (Expi293F)) VH: ELQLQESGPGLVKPSETLSLTCTVSGGSISDSSYYWGWIRQPPGKGLEWIGSIYYTGETYYAPSLKSRVTISVDTSKNQFSLKLSSVTAADTAVYYCARVKYGVGVPRYFDPWGQGTLVTVSS VL: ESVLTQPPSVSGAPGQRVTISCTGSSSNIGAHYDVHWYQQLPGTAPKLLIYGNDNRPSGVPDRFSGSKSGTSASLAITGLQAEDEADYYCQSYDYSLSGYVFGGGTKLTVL"
observation_type = "kon"
recorded_value = "2.19e+06 M⁻¹ s⁻¹"

[[record]]
binder = "mAb2.12 Fab (Fab, V domains shown, Recombinant Fab with 8xHis tag (Expi293F)) VH: ELQLQESGPGLVKPSETLSLTCTVSGGSISESSYYWGWIRQPPGKGLEWIGSIYYTGETYYAPSLKSRVTISVDTSKNQFSLKLSSVTAADTAVYYCARVKYGVGVPRYFDPWGQGTLVTVSS VL: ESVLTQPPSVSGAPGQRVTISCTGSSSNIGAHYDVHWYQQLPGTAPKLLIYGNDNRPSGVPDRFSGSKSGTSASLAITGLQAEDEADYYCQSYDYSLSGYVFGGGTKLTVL"
observation_type = "kon"
recorded_value = "1.7e+06 M⁻¹ s⁻¹"

